assay: protein stability index of a GFP-peptide fusion (yeast GPS) (PSI 1-4); higher = more stable; sorted into four equal gates, so the index is relative within each strain; conditions: ubr1∆
Assay Endpoint: protein stability index
Answers are plain numbers.

>  <Residue Sequence>
AFNRFMAESLVDLEEVM [SSN8]

>  <Value Measured>
1.62

$$$$
>  <Residue Sequence>
VDTLHNKEGTLEQREQN [SSN2]

>  <Value Measured>
3.35

$$$$
>  <Residue Sequence>
ALRLSMEEEQQRQERLR [RPN10]

>  <Value Measured>
3.38

$$$$
>  <Residue Sequence>
NLPPHYALFLKALRRKI [SSN2]

>  <Value Measured>
1.7

$$$$
>  <Residue Sequence>
WQQVTALAQQKLLTPQD [GAL11]

>  <Value Measured>
2.45

$$$$
>  <Residue Sequence>
KAINQELEDVAVKKLYA [YCS4]

>  <Value Measured>
2.94

$$$$

Take each entry in turn and give its protein stability index.
1. IATDGGRICRPLIIVSD [RET1]
2. LHKLQRMRLRALETENM [GRR1]
3. GDLASLVLLNGRLRNKS [RPP1]
4. QDGGIMGSLINGITLAL [SKI6]
5. MAPNTSRKQKIAKTFTV [RPL22A]
6. LLSEHDDHNGEVWSVSW [YGL100W/SEH1]
7. LILIPGETMWVPIKSSK [RPN13]

Output line:
1: 2.14; 2: 1.38; 3: 2.81; 4: 2.66; 5: 2.03; 6: 2.66; 7: 1.81

Take each entry in turn and give its protein stability index.
1. RTQPWSIMPDLYFYRDP [RPS0A]
2. ASLVPEGNQGSLQEDVS [MED8]

Output line:
1: 2.6; 2: 2.41
